Target: T1, human E-selectin, cell-surface expressed (human, UniProt P16581 22-610)
T1 construct: also called CHO-human E-selectin cells; human CHO-E
T1 sequence: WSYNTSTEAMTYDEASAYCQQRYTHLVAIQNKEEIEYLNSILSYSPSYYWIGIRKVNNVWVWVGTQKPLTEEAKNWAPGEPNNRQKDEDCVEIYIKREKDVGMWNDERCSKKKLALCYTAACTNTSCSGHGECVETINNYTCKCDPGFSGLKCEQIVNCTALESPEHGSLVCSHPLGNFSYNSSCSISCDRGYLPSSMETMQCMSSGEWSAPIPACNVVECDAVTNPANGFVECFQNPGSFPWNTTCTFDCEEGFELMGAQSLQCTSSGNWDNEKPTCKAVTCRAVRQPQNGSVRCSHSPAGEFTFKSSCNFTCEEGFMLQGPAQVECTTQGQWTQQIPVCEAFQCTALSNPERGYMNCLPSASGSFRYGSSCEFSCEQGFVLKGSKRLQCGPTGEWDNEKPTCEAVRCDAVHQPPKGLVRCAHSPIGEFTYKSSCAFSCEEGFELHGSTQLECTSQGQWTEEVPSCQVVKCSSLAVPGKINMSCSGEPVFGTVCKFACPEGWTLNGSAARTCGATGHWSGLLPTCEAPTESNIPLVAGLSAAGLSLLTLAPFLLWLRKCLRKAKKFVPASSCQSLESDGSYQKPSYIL
Assay: flow cytometry, CHO cells
quantity_kind: EC50 (nM)
Provide only the numeric value, understood in nM.

INSERT INTO assay_data (binder, quantity_kind, endpoint_value) VALUES
  ('anti-E-selectin antibody 0180 chimera (antibody, human IgG1, kappa, V domains shown, rat VH/VL on effector-null human IgG1 and human kappa) VH: EVQLQQSGAELGKPGTSVKLSCKVSGYKIRSSYMHWVNQRPGKGLEWIGRIDPANGNTIYGDKFKSKATLTSDTSSNTAYIQLSQLKSDDTAIYFCAIDIGTTFDYWGQGVMVTVSS VL: DIQMTQSPSFLSASVGDRVTINCKASQHINRYLNWYQQKLGEAPKLLIYDANNLQTGIPSRFSGSGSGTDFTLTISSLQPEDVATYFCLQHNSWPNTFGAGTKLELKR', 'EC50', 4.31);

Per the record, anti-E-selectin antibody 0039 chimera (antibody, human IgG1, kappa, V domains shown, rat VH/VL on effector-null human IgG1 and human kappa) VH: QVQLKETGPGLVQPTQTLSITCTVSGFSLTGYYMQWVRQTPGKGLEWMGFIRSSGSTEYNSEFKSRLSISRDTSKNQVFLKMNSLKTEDTGVYYCARCPYKYSSFVYVGVMDAWGQGAPVTVSS VL: EIVMTQSPTSMSTSIGERVTLNCKASQTVGINVDWYQQTPGQPPKLLIYGASNRHTGVPDRFTGSGFGRDFTLTISNVEAEDLAVYCCLQYGSIPHTFGPGTKLELKR has EC50 of 4.99

// anti-E-selectin antibody 0164 chimera (antibody, human IgG1, kappa, V domains shown, rat VH/VL on effector-null human IgG1 and human kappa) VH: EVQLQQSGAEFGKPGTSVKLSCKVSGYNIRSSYMHWVNQRPGKGLEWIGRIDPANGNTIYAEKFKIKAILTADSSSNTAYMQLSQLKSDDTAIYFCAMDLYSTSEYWGQGVMVTVSS VL: DIQMTQSPSFLSASVGDRVTINCKTSQNINRYLNWYQQKLGEAPKLLIYNANSLQTGIPSRFSASGSGTDFTLTINSLQPEDVATYFCLQDNSWPLTFGSGTKLEIKR : EC50 value = 4.43
